- Tested on: 3T3
- assay-overview: 3T3 host cell toxicity
- Format: cell-based
measurement-kind: host cell tox 3T3 pTC50

compound: CC(C)(C)c1cnc(CSc2cnc(NC(=O)C3CCNCC3)s2)o1 [NEU-984, SNS-03219, 20]
host cell tox 3T3 pTC50: <4
//
compound: O=C(NC1CCNCC1)c1n[nH]cc1NC(=O)c1c(Cl)cccc1Cl [NEU-982, AT751918]
host cell tox 3T3 pTC50: <4
//
compound: C[C@@H](Oc1cc(-c2cnn(C3CCNCC3)c2)cnc1N)c1c(Cl)ccc(F)c1Cl [NEU-838, crizotinib]
host cell tox 3T3 pTC50: 4.8
//
compound: CCc1cnn2c(NCc3ccc[n+]([O-])c3)cc(N3CCCC[C@H]3CCO)nc12 [NEU-975, dinaciclib]
host cell tox 3T3 pTC50: <4
//
compound: Cn1cc(C2=C(c3ccc(Cl)cc3Cl)C(=O)NC2=O)c2ccccc21 [NEU-990, SB 21676322]
host cell tox 3T3 pTC50: <4
//
compound: COc1cc(OC)c(/C=C/S(=O)(=O)Cc2ccc(OC)c(NCC(=O)O)c2)c(OC)c1 [NEU-973, ON-019109]
host cell tox 3T3 pTC50: <4
//
compound: CN1CC[C@H](c2c(O)cc(O)c3c(=O)cc(-c4ccccc4Cl)oc23)[C@H](O)C1 [NEU-987, flavopiridol]
host cell tox 3T3 pTC50: < 4
//
compound: Nc1cccc(-c2cc3c(Oc4cccc(O)c4)ncnc3[nH]2)c1 [NEU-989, TWS11925]
host cell tox 3T3 pTC50: 4.4
//
compound: Cc1ncc(-c2ccnc(Nc3ccc(S(C)(=O)=O)cc3)n2)n1C(C)C [NEU-985, AZD543821]
host cell tox 3T3 pTC50: <4
//
compound: CCc1cc2c(cc1N1CCC(N3CCOCC3)CC1)C(C)(C)c1[nH]c3cc(C#N)ccc3c1C2=O [NEU-974, CH542480210]
host cell tox 3T3 pTC50: <4

Report host cell tox 3T3 pTC50 for CC[C@@H]1C(=O)N(C)c2cnc(Nc3ccc(C(=O)NC4CCN(C)CC4)cc3OC)nc2N1C1CCCC1 [NEU-980, BI 253616] please.
4.5

Report host cell tox 3T3 pTC50 for Nc1ncnc2c1c(-c1cccc(OCc3ccccc3)c1)cn2[C@H]1C[C@@H](CN2CCC2)C1 [NEU-967, NVP-AEW5414] please.
4.8

Report host cell tox 3T3 pTC50 for CC(C)CC(=O)Nc1[nH]nc2c1CN(C(=O)C1CCN(C)CC1)C2(C)C [NEU-1007, PHA-79388727] please.
<4

Report host cell tox 3T3 pTC50 for CCc1cc(Nc2nccc(-c3c(-c4ccc(OC)c(C(=O)Nc5c(F)cccc5F)c4)nc4ccccn34)n2)c(OC)cc1N1CCC(N2CCN(S(C)(=O)=O)CC2)CC1 [NEU-970, GSK1904529A7] please.
<4

Report host cell tox 3T3 pTC50 for CCCCOc1c(C(=O)c2c(F)cc(C)cc2F)c[nH]c2nncc1-2 [NEU-968, BMS-2652465] please.
<4

Report host cell tox 3T3 pTC50 for CC[C@H](CO)Nc1nc(NCc2ccccc2)c2ncn(C(C)C)c2n1 [NEU-977, roscovitine] please.
<4

Report host cell tox 3T3 pTC50 for Nc1nc(NCCNc2ncc(-c3ncc[nH]3)c(-c3ccc(Cl)cc3Cl)n2)ccc1[N+](=O)[O-] [NEU-978, CHIR-9801414] please.
<4

Report host cell tox 3T3 pTC50 for COc1cc(N2CCC(N3CCN(C)CC3)CC2)ccc1Nc1ncc(Cl)c(Nc2ccccc2S(=O)(=O)C(C)C)n1 [NEU-844, TAE684] please.
4.6

Report host cell tox 3T3 pTC50 for COc1ccc2c(c1)[nH]c1c(C)nccc12 [NEU-1049, harmine] please.
<4

Report host cell tox 3T3 pTC50 for CNC(=O)c1nn(C)c2c1C(C)(C)Cc1cnc(Nc3ccc(N4CCN(C)CC4)cc3)nc1-2 [NEU-969, PHA-8481256] please.
<4

Report host cell tox 3T3 pTC50 for Nc1nc(Nc2ccc(S(N)(=O)=O)cc2)nn1C(=O)c1c(F)cccc1F [NEU-971, JNJ-77066218] please.
<4

Report host cell tox 3T3 pTC50 for CC[C@@H]1C(=O)N(C)c2cnc(Nc3ccc(C(=O)N[C@H]4CC[C@H](N5CCN(CC6CC6)CC5)CC4)cc3OC)nc2N1C(C)C [NEU-979, volasertib] please.
4.6

Report host cell tox 3T3 pTC50 for C[C@]1(O)C[C@@H](c2nc(-c3ccc4ccc(-c5ccccc5)nc4c3)c3c(N)nccn32)C1 [NEU-976, linsitinib] please.
<4

Report host cell tox 3T3 pTC50 for O=c1sn(-c2cccc3ccccc23)c(=O)n1Cc1ccccc1 [NEU-991, tideglusib] please.
4.1

Report host cell tox 3T3 pTC50 for O=C1NC(=O)C(c2ccccc2[N+](=O)[O-])=C1Nc1ccc(O)c(Cl)c1 [NEU-986, SB 41528622] please.
4.2
